ASSAY NOTES: Solubility and hygroscopicity of psilocybin (Polymorph A or A′)
Type: physicochemical
TEST CONDITIONS: in Water; form Polymorph A or A′
OBSERVATION TYPE: solubility

Task item: Report solubility for CN(C)CCc1c[nH]c2cccc(OP(=O)(O)O)c12
Reply: ~15 mg/mL
